test system: SF-268; test: Growth inhibition of human SF268 cells incubated for 48 hrs by sulforhodamine B assay; assay type: functional; settings: SF-268, 48 h

{"columns": ["INPUT_SMILES", "UNIT_DESCRIPTOR", "GI50"],
 "data": [
  ["CNCCCNCCCCNCCCN1C(=O)c2ccc3c4c(ccc(c24)C1=O)C(=O)N(CCCNCc1ccccc1OC)C3=O", "µM", 3.51],
  ["COc1ccccc1CNCCCN1C(=O)c2ccc3c4c(ccc(c24)C1=O)C(=O)N(CCCCNCCCN)C3=O", "µM", 1.66],
  ["COc1ccccc1CNCCCN1C(=O)c2ccc3c4c(ccc(c24)C1=O)C(=O)N(CCCNCCCN)C3=O", "µM", 0.41],
  ["COc1ccccc1CNCCCN1C(=O)c2ccc3c4c(ccc(c24)C1=O)C(=O)N(CCCOCCCCOCCCN)C3=O", "µM", 1.43],
  ["COc1ccccc1CNCCCN1C(=O)c2ccc3c4c(ccc(c24)C1=O)C(=O)N(CCCNCCCCN)C3=O", "µM", 0.268],
  ["COc1ccccc1CNCCCN1C(=O)c2ccc3c4c(ccc(c24)C1=O)C(=O)N(CCCNCCNCCCN)C3=O", "µM", 2.1],
  ["COc1ccccc1CNCCCN1C(=O)c2ccc3c4c(ccc(c24)C1=O)C(=O)N(CCCNCCCCNCCCN)C3=O", "µM", 0.338],
  ["CNCCCNCCCN1C(=O)c2ccc3c4c(ccc(c24)C1=O)C(=O)N(CCCNCc1ccccc1OC)C3=O", "µM", 1.03],
  ["COc1ccccc1CNCCCN1C(=O)c2ccc3c4c(ccc(c24)C1=O)C(=O)N(CCCN)C3=O", "µM", 1.23]
]}

* * *

tested on: BT-549; assay: Growth inhibition of human BT549 cells incubated for 48 hrs by sulforhodamine B assay; type: functional; settings: BT-549, 48 h
Lab note: compare GI50 with 2000 nM, writing met if less and not met if equal or more.

{"columns": ["INPUT_SMILES", "DISCRETE_LABEL"],
 "data": [
  ["COc1ccccc1CNCCCN1C(=O)c2ccc3c4c(ccc(c24)C1=O)C(=O)N(CCCNCCCN)C3=O", "met"],
  ["COc1ccccc1CNCCCN1C(=O)c2ccc3c4c(ccc(c24)C1=O)C(=O)N(CCCNCCCCNCCCN)C3=O", "met"],
  ["CNCCCNCCCCNCCCN1C(=O)c2ccc3c4c(ccc(c24)C1=O)C(=O)N(CCCNCc1ccccc1OC)C3=O", "not met"],
  ["COc1ccccc1CNCCCN1C(=O)c2ccc3c4c(ccc(c24)C1=O)C(=O)N(CCCNCCCCN)C3=O", "met"],
  ["COc1ccccc1CNCCCN1C(=O)c2ccc3c4c(ccc(c24)C1=O)C(=O)N(CCCN)C3=O", "met"],
  ["COc1ccccc1CNCCCN1C(=O)c2ccc3c4c(ccc(c24)C1=O)C(=O)N(CCCNCCNCCCN)C3=O", "not met"],
  ["CNCCCNCCCN1C(=O)c2ccc3c4c(ccc(c24)C1=O)C(=O)N(CCCNCc1ccccc1OC)C3=O", "not met"],
  ["COc1ccccc1CNCCCN1C(=O)c2ccc3c4c(ccc(c24)C1=O)C(=O)N(CCCCNCCCN)C3=O", "not met"]
]}

* * *

test system: OVCAR-4; assay: Growth inhibition of human OVCAR4 cells incubated for 48 hrs by sulforhodamine B assay; assay type: functional; details: OVCAR-4, 48 h
Catalogue of molecules with associated GI50

{"columns": ["INPUT_SMILES", "TARGET_OF_ASSAY", "GI50 [nM]"],
 "data": [
  ["COc1ccccc1CNCCCN1C(=O)c2ccc3c4c(ccc(c24)C1=O)C(=O)N(CCCN)C3=O", "OVCAR-4", 257],
  ["COc1ccccc1CNCCCN1C(=O)c2ccc3c4c(ccc(c24)C1=O)C(=O)N(CCCNCCCCNCCCN)C3=O", "OVCAR-4", 160],
  ["COc1ccccc1CNCCCN1C(=O)c2ccc3c4c(ccc(c24)C1=O)C(=O)N(CCCNCCNCCCN)C3=O", "OVCAR-4", 466],
  ["COc1ccccc1CNCCCN1C(=O)c2ccc3c4c(ccc(c24)C1=O)C(=O)N(CCCCNCCCN)C3=O", "OVCAR-4", 713],
  ["COc1ccccc1CNCCCN1C(=O)c2ccc3c4c(ccc(c24)C1=O)C(=O)N(CCCNCCCN)C3=O", "OVCAR-4", 873],
  ["CNCCCNCCCCNCCCN1C(=O)c2ccc3c4c(ccc(c24)C1=O)C(=O)N(CCCNCc1ccccc1OC)C3=O", "OVCAR-4", 1700],
  ["COc1ccccc1CNCCCN1C(=O)c2ccc3c4c(ccc(c24)C1=O)C(=O)N(CCCOCCCCOCCCN)C3=O", "OVCAR-4", 197],
  ["COc1ccccc1CNCCCN1C(=O)c2ccc3c4c(ccc(c24)C1=O)C(=O)N(CCCNCCCCN)C3=O", "OVCAR-4", 155],
  ["CNCCCNCCCN1C(=O)c2ccc3c4c(ccc(c24)C1=O)C(=O)N(CCCNCc1ccccc1OC)C3=O", "OVCAR-4", 641]
]}

* * *

Catalogue of compounds with associated GI50
tested on: 786-0; test: Growth inhibition of human 786-0 cells incubated for 48 hrs by sulforhodamine B assay; type: functional; details: 786-0, 48 h

{"columns": ["INPUT_SMILES", "UNIT_DESCRIPTOR", "GI50"],
 "data": [
  ["COc1ccccc1CNCCCN1C(=O)c2ccc3c4c(ccc(c24)C1=O)C(=O)N(CCCN)C3=O", "nM", 1940],
  ["CNCCCNCCCCNCCCN1C(=O)c2ccc3c4c(ccc(c24)C1=O)C(=O)N(CCCNCc1ccccc1OC)C3=O", "nM", 3360],
  ["COc1ccccc1CNCCCN1C(=O)c2ccc3c4c(ccc(c24)C1=O)C(=O)N(CCCNCCCCN)C3=O", "nM", 616],
  ["COc1ccccc1CNCCCN1C(=O)c2ccc3c4c(ccc(c24)C1=O)C(=O)N(CCCNCCCN)C3=O", "nM", 715],
  ["COc1ccccc1CNCCCN1C(=O)c2ccc3c4c(ccc(c24)C1=O)C(=O)N(CCCOCCCCOCCCN)C3=O", "nM", 1530],
  ["CNCCCNCCCN1C(=O)c2ccc3c4c(ccc(c24)C1=O)C(=O)N(CCCNCc1ccccc1OC)C3=O", "nM", 1270],
  ["COc1ccccc1CNCCCN1C(=O)c2ccc3c4c(ccc(c24)C1=O)C(=O)N(CCCCNCCCN)C3=O", "nM", 2280],
  ["COc1ccccc1CNCCCN1C(=O)c2ccc3c4c(ccc(c24)C1=O)C(=O)N(CCCNCCCCNCCCN)C3=O", "nM", 1170]
]}

* * *

Catalogue of molecules with associated GI50
system: A549; assay: Growth inhibition of human A549/ATCC cells incubated for 48 hrs by sulforhodamine B assay; assay type: functional; details: A549, 48 h
ENDPOINT_NAME: GI50 (nM)

{"columns": ["INPUT_SMILES", "ENDPOINT_NAME", "RECORDED_MEASUREMENT"],
 "data": [
  ["CNCCCNCCCN1C(=O)c2ccc3c4c(ccc(c24)C1=O)C(=O)N(CCCNCc1ccccc1OC)C3=O", "GI50", 577],
  ["COc1ccccc1CNCCCN1C(=O)c2ccc3c4c(ccc(c24)C1=O)C(=O)N(CCCNCCCN)C3=O", "GI50", 148],
  ["COc1ccccc1CNCCCN1C(=O)c2ccc3c4c(ccc(c24)C1=O)C(=O)N(CCCOCCCCOCCCN)C3=O", "GI50", 1220],
  ["COc1ccccc1CNCCCN1C(=O)c2ccc3c4c(ccc(c24)C1=O)C(=O)N(CCCN)C3=O", "GI50", 1760]
]}

* * *

system: SW-620; assay: Growth inhibition of human SW620 cells incubated for 48 hrs by sulforhodamine B assay; format: functional; conditions: SW-620, 48 h
Catalogue of compounds with associated GI50
ENDPOINT_NAME: GI50 (nM)

{"columns": ["INPUT_SMILES", "ENDPOINT_NAME", "RECORDED_MEASUREMENT"],
 "data": [
  ["COc1ccccc1CNCCCN1C(=O)c2ccc3c4c(ccc(c24)C1=O)C(=O)N(CCCOCCCCOCCCN)C3=O", "GI50", 357],
  ["COc1ccccc1CNCCCN1C(=O)c2ccc3c4c(ccc(c24)C1=O)C(=O)N(CCCNCCCCN)C3=O", "GI50", 155],
  ["COc1ccccc1CNCCCN1C(=O)c2ccc3c4c(ccc(c24)C1=O)C(=O)N(CCCNCCCN)C3=O", "GI50", 109],
  ["COc1ccccc1CNCCCN1C(=O)c2ccc3c4c(ccc(c24)C1=O)C(=O)N(CCCNCCCCNCCCN)C3=O", "GI50", 262],
  ["CNCCCNCCCN1C(=O)c2ccc3c4c(ccc(c24)C1=O)C(=O)N(CCCNCc1ccccc1OC)C3=O", "GI50", 365]
]}
